These entries and their values trace back to patent US20030236190A1.

# test.system: T1, human insulin receptor (HIR) (human, UniProt P06213 28-1382, limits assumed)
# T1 construct: Detergent-solubilised receptor; The natural receptor is an alpha2-beta2 heterotetramer cleaved from one precursor
# assay: 125I-insulin displacement, solubilised HIR
pKd: −log10 of the molar value. Non-standard residues stand in square brackets, D forms with d. No end group written: not given here. Cha = N[C@@H](CC1CCCCC1)C(=O)O; Ac6c = NC1(C(=O)O)CCCCC1; Aib = CC(C)(N)C(=O)O
measured.metric: pKd

* S335 (not fully specified; C-terminal Lig coupled to linker 22, dimer, C-C) peptide 1: GSLDESFYDWFERQLGKKX peptide 2: GSLDESFYDWFERQLGKKX | 7.01
* NGVERAGTGDNFYDWFVAQLH [S176] | 6.33
* GGSFYDD[Ac6c]E[Aib]LW[Aib]G (printed: GGSFYDD-Acy-E-Aib-LW-Aib-G) [S304] | 4.68
* N[Aib]PFYDE[Ac6c]DE[Cha]W[Aib]G (printed: N-Aib-PFYDE-Acy-DE-Cha-W-Aib-G) [S305] | 6.08
* S233 (not fully specified; C-terminal Lig′ coupled to linker 14, heterodimer F1-F2, C-C) peptide 1: FHENFYDWFVRQVSKKX peptide 2: SDGFYNAIELLSX | 6.59
* S329 (N-terminal Lig′ coupled to linker 17, dimer, N-N) peptide 1: XFHENFYDWFVRQVSKK peptide 2: XFHENFYDWFVRQVSKK | 5.57
* S172 (N-terminal Lig coupled to linker 14, dimer, N-N) peptide 1: XFHENFYDWFVRQVSKK peptide 2: XFHENFYDWFVRQVSKK | 5.32
* WLEHEWAQIQCELYGRGCTY [S285] | 6.08
* QSFYDYIEELLGGEWKK [S288] | 5.37
* HPSTNQMLMKLFK [S123] | 4.80
* GSLDESFYDWFERQL [S395] | 5.09
* SDGFYNA[Ac6c]ELLSG (printed: SDGFYNA-Acy-ELLSG) [S302] | 6.07
* GIISQSCPESFYDWFAGQVSDPWWC[dW] (cysteine pairing not given here, also called G33; H2CA-4-G9-IGFR) [S326] | 6.23
* S359 (N-terminal Lig′ coupled to linker 9, dimer, N-N) peptide 1: XDWLQRNANFYDWFVAEL peptide 2: XDWLQRNANFYDWFVAEL | 6.15
* GSLDESFYDWFERQLG (also called RP9 minus terminal lysines) [S386] | 6.49
* S292 (not fully specified; N-terminal Lig′ coupled to linker 12, dimer, N-N) peptide 1: XGGGFHENFYDWFVRQVSKK peptide 2: XGGGFHENFYDWFVRQVSKK | 6.12
